experiment: Pharmacokinetic studies, plasma of healthy mice; assay type: in vivo; conditions: plasma; mouse; 5 mg/kg oral (PO)
reportedProperty: AUC (ng·h/mL)
I only need the number, in ng·h/mL, no unit after it.

Q. Quote AUC reported for O=C(NO)c1ccc(Nc2nc3ccccc3n2C2CCCCC2)cc1 [Compound ID #25] please.
A. 1280

Q. Quote AUC reported for O=C(NO)c1ccc(Nc2nc3ccccc3n2C2CCCCCC2)cc1 [Compound ID #26] please.
A. 1650

Q. Quote AUC reported for O=C(NO)c1ccc(Nc2nc3ccccc3n2CC2CCCCC2)cc1 [Compound ID #24] please.
A. 3970
